Hey, just so you know, these numbers are from ChEMBL document CHEMBL1152363.

// UniProt P27487 IC50 records
Sequence (P27487 whole entry): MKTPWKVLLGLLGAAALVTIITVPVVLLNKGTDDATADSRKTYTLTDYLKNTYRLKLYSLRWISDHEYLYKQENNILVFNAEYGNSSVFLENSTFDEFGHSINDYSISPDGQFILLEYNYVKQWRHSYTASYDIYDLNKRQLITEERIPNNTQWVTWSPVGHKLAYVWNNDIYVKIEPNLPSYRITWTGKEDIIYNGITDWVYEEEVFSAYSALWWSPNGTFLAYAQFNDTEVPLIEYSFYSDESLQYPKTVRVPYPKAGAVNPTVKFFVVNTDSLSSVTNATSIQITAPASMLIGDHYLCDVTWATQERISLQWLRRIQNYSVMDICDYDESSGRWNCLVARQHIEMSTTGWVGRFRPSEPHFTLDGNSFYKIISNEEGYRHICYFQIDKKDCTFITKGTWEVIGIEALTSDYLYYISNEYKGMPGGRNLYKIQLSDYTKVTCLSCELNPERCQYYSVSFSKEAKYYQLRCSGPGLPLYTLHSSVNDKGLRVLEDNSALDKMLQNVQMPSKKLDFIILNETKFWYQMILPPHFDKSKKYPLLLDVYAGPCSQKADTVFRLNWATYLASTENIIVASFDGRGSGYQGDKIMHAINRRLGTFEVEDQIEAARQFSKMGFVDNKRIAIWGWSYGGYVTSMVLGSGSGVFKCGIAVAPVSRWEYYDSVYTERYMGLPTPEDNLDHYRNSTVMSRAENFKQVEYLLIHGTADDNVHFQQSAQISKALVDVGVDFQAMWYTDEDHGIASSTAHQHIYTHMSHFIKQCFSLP
Report as a plain number; the unit nM is understood.

Prompt: Provide measured IC50 value, entry: N[C@@H](CC(=O)N1CCC[C@H]1CNC(=O)c1ccccc1)Cc1cccc(Cl)c1
Response: 27

Prompt: Provide measured IC50 value, entry: N[C@@H](CC(=O)N1CCC[C@H]1CNC(=O)c1ccncc1)Cc1ccccc1F
Response: 66

Prompt: Provide measured IC50 value, entry: N[C@@H](CC(=O)N1CCC[C@H]1CNS(=O)(=O)c1cccc(F)c1)Cc1ccccc1F
Response: 94

Prompt: Provide measured IC50 value, entry: N[C@@H](CC(=O)N1CCC[C@H]1CNS(=O)(=O)c1cc(Cl)ccc1Cl)Cc1ccccc1F
Response: 24
